- target-of-assay: N2.10
- run-description: FP
Where no end group is shown, it is not given here.
quantity-kind: pKd
Interpret pKd as the negative base-10 log of the concentration measured in mol/L.

Query string: # query: pKd of entry GYQDYEPEA (also: TAMRA fluorophore, position not given here) [TAMRA-labeled α-synuclein peptide]
Result string: 7.50
